Measured values drawn from patent US9303027B2 for this set.

Each entry below lists one item and its recorded melting point value.

molecule	melting point
O=C(N[C@H](CN1CCCC1)c1ccccc1)C1(c2ccc3[nH]c(=O)ccc3c2)CC1	171 to 172 °C
CN(C(=O)C1(c2ccccc2)CCCCC1)[C@H](CN1CCCC1)c1ccccc1.Cl	232 to 233 °C
COC(=O)c1cccc(Cn2c(=O)oc3ccc(C4(C(=O)N[C@H](CN5CCCC5)c5cccc(O)c5)CC4)cc32)c1	112 to 113 °C
Cn1nnc2cc(C3(C(=O)N[C@H](CN4CCCC4)c4ccccc4)CC3)ccc21 (stereo in doubt)	78 to 80 °C
CC(=O)c1cc(C2(C(=O)N[C@H](CN3CCCC3)c3ccccc3)CC2)ccc1O (stereo in doubt)	101.8 to 102.2 °C
O=C(N[C@H](CN1CCCC1)c1ccccc1)C1(c2ccc3[nH]cnc3c2)CC1 (stereo in doubt)	127 to 129 °C

[in] Look up melting point of `CS(=O)(=O)Oc1ccc(C2(C(=O)N[C@H](CN3CC[C@H](O)C3)c3ccccc3)CC2)cc1.Cl` and report it.
[out] 60 to 62 °C
